- assay-overview: Luminescence lifetime measurements
- Type: physicochemical
- test-parameters: air saturated CH3CN, excitation at 355 nm
Classify by τ/ns air (Lifetime). Ranges: low range: < 70 ns; mid range: ≥ 70 ns and < 90 ns; high range: ≥ 90 ns

Record excerpt, results attached:
# molecule, answer-label
records = [
    ("COc1ccc(/C=C/c2ccnc(-c3cc(/C=C/c4ccc(OC)cc4)ccn3)c2)cc1.COc1ccc(/C=C/c2ccnc(-c3cc(/C=C/c4ccc(OC)cc4)ccn3)c2)cc1.COc1ccc(/C=C/c2ccnc(-c3cc(/C=C/c4ccc(OC)cc4)ccn3)c2)cc1.F[P-](F)(F)(F)(F)F.F[P-](F)(F)(F)(F)F.[Ru+2] [Compound 3]", "mid range"),
    ("COc1ccc(/C=C/c2ccnc(-c3cc(/C=C/c4ccc(OC)cc4)ccn3)c2)cc1.F[P-](F)(F)(F)(F)F.F[P-](F)(F)(F)(F)F.[Ru+2].c1cnc2c(c1)ccc1cccnc12.c1cnc2c(c1)ccc1cccnc12 [Compound 9]", "high range"),
    ("CN(C)c1ccc(/C=C/c2ccnc(-c3cc(/C=C/c4ccc(N(C)C)cc4)ccn3)c2)cc1.CN(C)c1ccc(/C=C/c2ccnc(-c3cc(/C=C/c4ccc(N(C)C)cc4)ccn3)c2)cc1.CN(C)c1ccc(/C=C/c2ccnc(-c3cc(/C=C/c4ccc(N(C)C)cc4)ccn3)c2)cc1.F[P-](F)(F)(F)(F)F.F[P-](F)(F)(F)(F)F.[Ru+2] [Compound 2]", "low range"),
    ("CN(C)c1ccc(/C=C/c2ccnc(-c3cc(/C=C/c4ccc(N(C)C)cc4)ccn3)c2)cc1.F[P-](F)(F)(F)(F)F.F[P-](F)(F)(F)(F)F.[Ru+2].c1cnc2c(c1)ccc1cccnc12.c1cnc2c(c1)ccc1cccnc12 [Compound 8]", "high range"),
    ("C(=C\\c1ccnc(-c2cc(/C=C/c3ccccc3)ccn2)c1)/c1ccccc1.C(=C\\c1ccnc(-c2cc(/C=C/c3ccccc3)ccn2)c1)/c1ccccc1.C(=C\\c1ccnc(-c2cc(/C=C/c3ccccc3)ccn2)c1)/c1ccccc1.F[P-](F)(F)(F)(F)F.F[P-](F)(F)(F)(F)F.[Ru+2] [Compound 1]", "mid range"),
]

Dear colleague, I would appreciate it if you could identify the bin for CN(C)c1ccc(/C=C/c2ccnc(-c3cc(/C=C/c4ccc(N(C)C)cc4)ccn3)c2)cc1.F[P-](F)(F)(F)(F)F.F[P-](F)(F)(F)(F)F.[Ru+2].c1ccc(-c2ccccn2)nc1.c1ccc(-c2ccccn2)nc1 [Compound 6] and reply at your convenience.
low range

Dear colleague, I would appreciate it if you could identify the bin for COc1ccc(C=Cc2ccnc(-c3cc(C=Cc4ccc(OC)cc4)ccn3)c2)cc1.F[P-](F)(F)(F)(F)F.F[P-](F)(F)(F)(F)F.[Ru+2].c1ccc(-c2ccnc3c2ccc2c(-c4ccccc4)ccnc23)cc1.c1ccc(-c2ccnc3c2ccc2c(-c4ccccc4)ccnc23)cc1 [Compound 11] and reply at your convenience.
high range

Dear colleague, I would appreciate it if you could identify the bin for COc1ccc(/C=C/c2ccnc(-c3cc(/C=C/c4ccc(OC)cc4)ccn3)c2)cc1.COc1ccc(/C=C/c2ccnc(-c3cc(/C=C/c4ccc(OC)cc4)ccn3)c2)cc1.F[P-](F)(F)(F)(F)F.F[P-](F)(F)(F)(F)F.[Ru+2].c1ccc(-c2ccccn2)nc1 [Compound 5] and reply at your convenience.
low range

---

- assay-overview: Luminescence lifetime measurements
- Assay type: physicochemical
- test-parameters: degassed CH3CN, excitation at 355 nm
measured-quantity: τ/ns degassed (Lifetime) (ns)
// units = ns; emit number, no label

Known τ/ns degassed (Lifetime) results, listed for orientation:
# molecule, τ/ns degassed (Lifetime), ns
data = [
    ("C(=C\\c1ccnc(-c2cc(/C=C/c3ccccc3)ccn2)c1)/c1ccccc1.C(=C\\c1ccnc(-c2cc(/C=C/c3ccccc3)ccn2)c1)/c1ccccc1.C(=C\\c1ccnc(-c2cc(/C=C/c3ccccc3)ccn2)c1)/c1ccccc1.F[P-](F)(F)(F)(F)F.F[P-](F)(F)(F)(F)F.[Ru+2] [Compound 1]", 385),
    ("CN(C)c1ccc(/C=C/c2ccnc(-c3cc(/C=C/c4ccc(N(C)C)cc4)ccn3)c2)cc1.F[P-](F)(F)(F)(F)F.F[P-](F)(F)(F)(F)F.[Ru+2].c1cnc2c(c1)ccc1cccnc12.c1cnc2c(c1)ccc1cccnc12 [Compound 8]", 334),
    ("CN(C)c1ccc(/C=C/c2ccnc(-c3cc(/C=C/c4ccc(N(C)C)cc4)ccn3)c2)cc1.CN(C)c1ccc(/C=C/c2ccnc(-c3cc(/C=C/c4ccc(N(C)C)cc4)ccn3)c2)cc1.CN(C)c1ccc(/C=C/c2ccnc(-c3cc(/C=C/c4ccc(N(C)C)cc4)ccn3)c2)cc1.F[P-](F)(F)(F)(F)F.F[P-](F)(F)(F)(F)F.[Ru+2] [Compound 2]", 222),
]

response.value for COc1ccc(/C=C/c2ccnc(-c3cc(/C=C/c4ccc(OC)cc4)ccn3)c2)cc1.COc1ccc(/C=C/c2ccnc(-c3cc(/C=C/c4ccc(OC)cc4)ccn3)c2)cc1.COc1ccc(/C=C/c2ccnc(-c3cc(/C=C/c4ccc(OC)cc4)ccn3)c2)cc1.F[P-](F)(F)(F)(F)F.F[P-](F)(F)(F)(F)F.[Ru+2] [Compound 3] (field: τ/ns degassed (Lifetime)) = 338
